Just for reference, patent US20240392024A1 is where these values come from.

# system_tested: T1, TNFR2-His (Sino Biological, 10417-H08H, NP_001057.1 Met1-Asp257, with multi-histidine tag expressed on … (human, UniProt P20333 23-257))
# T1 construct: range 1-257; Bought protein; also called recombinant human TNFR2 protein; TNFR2-His antigen; not shown: C-terminal multi-histidine tag
# T1 sequence (looked up): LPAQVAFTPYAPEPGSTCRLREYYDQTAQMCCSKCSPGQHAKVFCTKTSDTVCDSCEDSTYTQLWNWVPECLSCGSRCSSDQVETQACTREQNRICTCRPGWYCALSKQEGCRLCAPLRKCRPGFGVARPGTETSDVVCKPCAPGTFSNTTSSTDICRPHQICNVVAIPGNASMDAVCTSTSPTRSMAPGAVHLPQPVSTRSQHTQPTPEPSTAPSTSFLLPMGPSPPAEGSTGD
# protocol_notes: BLI, antibody captured on AHC probe, TNFR2 in solution
pKd values by entry
pKd here is simply -log10 of the concentration when that concentration is written in mol/L.

12E12-huVH6 + huVL2(P08937) (antibody, V domains shown, Humanized 12E12) VH: QVQLVQSGAEVKKPGASVKVSCKASGYTITDFYIHWVRQAPGQGLEWIGRVDPEDGNTEYAPNFQDRATMTTDTSTSTAYLELSSLRSEDTAVYYCSTWDGFSYFDYWGQGTTVTVSS VL: QAVVTQEPSLTVSPGGTVTLTCRSSTGPVTTNNYANWVQQKPGQAFRGLIGGTNDRAPGVPARFSGSLLGGKAALTLSGAQPEDEAEYYCALWYRNHWVFGGGTKLTVL
8.28

Task: Answer with the recorded pKd of human-mouse chimeric TNFR2 monoclonal antibody 12E12-hFc (antibody, V domains shown, Mouse V regions of clone 12E12 with human constant regions; also called human-mouse chimeric 12E12 antibody) VH: EVQLQQSGAELVKPGASVKLSCTVSGFNIKDFYIHWVKQRPEQGLEWIGRVDPEDGNTEYAPNFQDRATMTTDTSSNTAYLQLSSLTSVDTAVYYCSTWDGFSYFDYWGLGTTLTVSS VL: QAVVTQESALTTSPGETVTLTCRSSTGPVTTNNYANWVQEKPDHLFTGLIGGTNDRAPGVPARFSGSLIGDKTALTITGTQTEDEAVYFCALWYRNHWVFGGGTKLTVL only.
Output: 8.49

Task: Report pKd, nothing else, for this binder: 12E12huVH3 + huVL2(P07282) (antibody, V domains shown, Humanized 12E12) VH: QVQLVQSGAEVKKPGASVKVSCKVSGFNIKDFYIHWVRQAPGKGLEWMGRVDPEDGNTEYAQKFQGRVTMTTDTSTDTAYMELSSLRSEDTAVYYCSTWDGFSYFDYWGQGTTVTVSS VL: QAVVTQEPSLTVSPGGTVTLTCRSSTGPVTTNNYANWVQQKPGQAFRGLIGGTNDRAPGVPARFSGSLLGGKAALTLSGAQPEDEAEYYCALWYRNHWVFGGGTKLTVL
Output: 8.20

Task: Read the entry 12E12-huVH8 + huVL2(P08939) (antibody, V domains shown, Humanized 12E12) VH: EVQLVQSGAEVKKPGATVKISCKVSGYTITDFYIHWVQQAPGKGLEWMGRVDPEDGNTEYAPNFQDRVTITADTSTDTAYMELSSLRSEDTAVYYCSTWDGFSYFDYWGQGTTVTVSS VL: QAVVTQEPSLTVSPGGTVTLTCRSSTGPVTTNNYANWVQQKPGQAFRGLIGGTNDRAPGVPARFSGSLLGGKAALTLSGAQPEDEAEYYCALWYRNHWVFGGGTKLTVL and write its reported pKd.
Output: 8.41

Task: Output pKd of 12E12-huVH7 + huVL2(P08938) (antibody, V domains shown, Humanized 12E12) VH: QVQLVQSGAEVKKPGASVKVSCKASGYTITDFYIHWVRQAPGKGLEWMGRVDPEDGNTEYAQKFQGRVTMTTDTSTDTAYMELSSLRSEDTAVYYCSTWDGFSYFDYWGQGTTVTVSS VL: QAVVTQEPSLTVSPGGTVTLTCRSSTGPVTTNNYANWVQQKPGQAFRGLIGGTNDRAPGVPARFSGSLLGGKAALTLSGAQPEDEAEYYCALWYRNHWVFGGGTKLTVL
Output: 8.77

Task: Specify reported pKd for the binder shown: 12E12huVH3 + huVL4(P07290) (antibody, V domains shown, Humanized 12E12) VH: QVQLVQSGAEVKKPGASVKVSCKVSGFNIKDFYIHWVRQAPGKGLEWMGRVDPEDGNTEYAQKFQGRVTMTTDTSTDTAYMELSSLRSEDTAVYYCSTWDGFSYFDYWGQGTTVTVSS VL: EAVVTQSPATLSLSPGERATLSCRSSTGPVTTNNYANWVQQKPGQAFRGLIGGTNDRAPGIPARFSGSGSGTDTTLTISSLQPEDFAVYYCALWYRNHWVFGGGTKLEIK
Output: 8.30

Task: Please report pKd for the following binder: 12E12-huVH7 + huVL4(P08941) (antibody, V domains shown, Humanized 12E12) VH: QVQLVQSGAEVKKPGASVKVSCKASGYTITDFYIHWVRQAPGKGLEWMGRVDPEDGNTEYAQKFQGRVTMTTDTSTDTAYMELSSLRSEDTAVYYCSTWDGFSYFDYWGQGTTVTVSS VL: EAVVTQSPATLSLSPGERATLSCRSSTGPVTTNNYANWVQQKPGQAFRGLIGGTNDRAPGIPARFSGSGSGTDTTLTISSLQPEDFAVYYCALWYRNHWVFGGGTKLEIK
Output: 8.55
